- TARGET_UNDER_TEST: human PD-L1/His fusion protein (human, UniProt Q9NZQ7 19-239)
- Sequence (Q9NZQ7 19-239 limits assumed): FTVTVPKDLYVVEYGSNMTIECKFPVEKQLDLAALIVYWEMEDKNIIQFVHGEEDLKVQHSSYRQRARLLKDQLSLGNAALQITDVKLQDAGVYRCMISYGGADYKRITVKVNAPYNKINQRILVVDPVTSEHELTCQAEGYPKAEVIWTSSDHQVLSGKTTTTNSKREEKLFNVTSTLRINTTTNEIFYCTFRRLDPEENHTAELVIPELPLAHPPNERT
- EXPERIMENT_NOTES: BLI off-rate; test group 1
Overview of reported Off-Rate Ratio to that of EM0005-87c across a group of binders:

| BINDER | Off-Rate Ratio to that of EM0005-87c |
| --- | --- |
| HuEM0005-87-4 (antibody, human IgG1, V domains shown) VH: EVQLVQSGAEVKKPGASVKVSCKASGYSFTDYYINWVRQAPGQGLEWIGETIPNTGGTTYNQKFKAKATLTVDKSTSTAYMELSSLRSEDTAVYYCARYQSGSPFAYWGQGTTVTVSS VL: DIVMTQSPDSLAVSLGERATINCKASQNVGTAVAWYQQKPGQPPKLLIYSASNRYTGVPDRFTGSGSGTDFTLTISSLQAEDVAVYYCQQHYSTPYTFGGGTKLEIK | 52% |
| HuEM0005-87-1 (antibody, human IgG1, V domains shown, also called HuEM0005-87-l) VH: EVQLVQSGAEVKKPGASVKVSCKASGYTFTDYYINWVRQAPGQGLEWMGETIPNTGGTTYNQKFKARVTMTVDTSTSTVYMELSSLRSEDTAVYYCARYQSGSPFAYWGQGTTVTVSS VL: DIVMTQSPDSLAVSLGERATINCKASQNVGTAVAWYQQKPGQPPKLLIYSASNRYTGVPDRFTGSGSGTDFTLTISSLQAEDVAVYYCQQHYSTPYTFGGGTKLEIK | 64% |
| HuEM0005-87-2 (antibody, human IgG1, V domains shown) VH: EVQLVQSGAEVKKPGASVKVSCKASGYTFTDYYINWVRQAPGQGLEWMGETIPNTGGTTYNQKFKARVTLTVDTSTSTVYMELSSLRSEDTAVYYCARYQSGSPFAYWGQGTTVTVSS VL: DIVMTQSPDSLAVSLGERATINCKASQNVGTAVAWYQQKPGQPPKLLIYSASNRYTGVPDRFTGSGSGTDFTLTISSLQAEDVAVYYCQQHYSTPYTFGGGTKLEIK | 54% |
| HuEM0005-87-6 (antibody, human IgG1, V domains shown) VH: EVQLVQSGAEVKKPGASVKVSCKASGYTFTDYYINWVRQAPGQGLEWMGETIPNTGGTTYNQKFKARVTMTVDTSTSTVYMELSSLRSEDTAVYYCARYQSGSPFAYWGQGTTVTVSS VL: EIVMTQSPATLSVSPGERATLSCKASQNVGTAVAWYQQKPGQAPRLLIYSASNRYTGIPARFSGSGSGTEFTLTISSLQSEDFAVYYCQQHYSTPYTFGGGTKLEIK | 68% |
